Reported log10 of Ki values follow for various molecules
- systemUnderTest: 3-dehydroquinate dehydratase (Helicobacter pylori (strain ATCC 700392 / 26695) (Campylobacterpylori), UniProt Q48255)
- Sequence (Q48255 whole entry): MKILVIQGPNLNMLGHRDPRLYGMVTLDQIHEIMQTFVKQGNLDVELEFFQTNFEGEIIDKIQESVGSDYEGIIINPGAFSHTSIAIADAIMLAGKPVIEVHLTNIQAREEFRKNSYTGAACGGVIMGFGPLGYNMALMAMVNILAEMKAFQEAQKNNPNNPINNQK
- procedureText: Reversible competitive inhibition of Helicobacter pylori DHQ2 assessed as conversion of 3-dehydroquinic acid to 3-dehydroshikimic acid by Dixon plot analysis
Remember, log10 of Ki, in µM.

O=C(O)[C@]1(O)C=C([C@H](O)Cc2ccccc2)[C@@H](O)[C@H](O)C1    1.52
O=C(O)[C@]1(O)C=C([C@H](Cl)Cc2ccccc2)[C@@H](O)[C@H](O)C1    1.02

GET /values?readout=log10 of Ki&item= O=C(O)[C@]1(O)C=C([C@@H](Cl)Cc2ccccc2)[C@@H](O)[C@H](O)C1
1.61

GET /values?readout=log10 of Ki&item= O=C(O)[C@]1(O)C=C(CCO)[C@@H](O)[C@H](O)C1
2.27

GET /values?readout=log10 of Ki&item= O=C(O)[C@]1(O)C=C(CO)[C@@H](O)[C@H](O)C1
2.45

GET /values?readout=log10 of Ki&item= O=C(O)[C@]1(O)C=C([C@@H](O)Cc2ccccc2)[C@@H](O)[C@H](O)C1
1.57

Reference source: ChEMBL document CHEMBL3232749
